System: Candida albicans
Assay: Antimicrobial activity against Candida albicans RCMB 05035 after 72 hrs by macro-tube dilution technique
Assay type: functional
Conditions: RCMB 05035, 72 h
Mark Yes only when MIC stays strictly below 2 µg/mL. Values equal to the cut-off are No.

Does this compound meet the criterion MIC < 2 µg/mL? C[C@@H]1[C@H](O)[C@@H](C)/C=C/C=C/C=C/C=C/C=C/C=C/C=C/[C@H](O[C@@H]2O[C@H](C)[C@@H](O)[C@H](N)[C@@H]2O)C[C@@H]2O[C@](O)(C[C@@H](O)C[C@@H](O)[C@H](O)CC[C@@H](O)C[C@@H](O)CC(=O)O[C@H]1C)C[C@H](O)[C@H]2C(=O)O
Yes

Field entry: Clc1ccc(-c2nn(-c3ccccc3)cc2/C=N/Nc2ccc3ccccc3n2)cc1
No

Thanks! And Cc1ccc(-c2nn(-c3ccccc3)cc2/C=N/Nc2ccc3ccccc3n2)cc1 ?
Yes

Then this compound: N#Cc1c(-c2ccc(Cl)cc2Cl)nn(-c2ccc3ccccc3n2)c1N
Yes

Input COc1ccc(C2CC(c3ccc(Oc4ccc5ccccc5n4)cc3)=NN2c2ccccc2)cc1 (stereo not given)
Yes

Similarly, C(=N\Nc1ccc2ccccc2n1)/c1cn(-c2ccccc2)nc1-c1ccccc1 ?
No

* * *

Test system: Aspergillus clavatus
Assay: Antimicrobial activity against Aspergillus clavatus RCMB 02593 after 72 hrs by macro-tube dilution technique
Type: functional
Conditions: RCMB 02593, 72 h
READOUT NAME: MIC (µg/mL)
Give the quantity in µg/mL, number only.

I am curious: what MIC value has been reported for Clc1ccc(-c2nn(-c3ccccc3)cc2/C=N/Nc2ccc3ccccc3n2)cc1 ?
7.81

Quick one: Cc1nn(-c2ccc3ccccc3n2)c(N)c1C#N
7.8

Also check CCOC(=O)c1c(SC)nn(-c2ccc3ccccc3n2)c1N
7.81

Another: Cc1ccc(-c2nn(-c3ccccc3)cc2/C=N/Nc2ccc3ccccc3n2)cc1
7.81
